Ref: patent EP4711371A1

- System: NCI-N87
- experiment-summary: In vitro proliferation inhibition assay of camptothecin derivatives (Payload), Test Example 1
- Format: cell-based
- experimental-setup: Homo sapiens, NCI-N87, 96 h; payload, cultured 4 days, CCK-8; read-out: NCI-N87 IC50
measure: pIC50
Give bare numbers, as −log10 of the molar value.

CC[C@@]1(OC(=O)Cn2cc(F)c(=O)[nH]c2=O)C(=O)OCc2c1cc1n(c2=O)Cc2c-1nc1cc(F)c(C)c3c1c2[C@@H](N)CC3
8.65
CC[C@@]1(OC(=O)CCN2C(=O)c3ccccc3C2=O)C(=O)OCc2c1cc1n(c2=O)Cc2c-1nc1cc(F)c(C)c3c1c2[C@@H](N)CC3
6.42
CCc1c2c(nc3ccc(O)cc13)-c1cc3c(c(=O)n1C2)COC(=O)[C@]3(O)CC [SN38, SN-38, reference compound]
8.27

Lab note: measured pIC50 of CC[C@@]1(OC(=O)CCN2CCN(C)CC2)C(=O)OCc2c1cc1n(c2=O)Cc2c-1nc1cc(F)c(C)c3c1c2[C@@H](N)CC3 was 8.43

* * *

- Test system: T47D
- experiment-summary: cells
- Format: cell-based
- experimental-setup: Homo sapiens, 120 h, read-out: T47D IC50
- Experimental: Test Example 2 In vitro proliferation inhibition assay of the camptothecin derivatives (Payload) of the present invention on tumor cells 1. Instruments and Reagents 2. Experimental Procedure • a. […] The optical density (OD) at 450 nm was measured using a microplate reader (model: CEY0017), and the data was recorded with Excel. • c. […]
measure: IC50

Here's what some known entries look like.
CC[C@@]1(O)C(=O)OCc2c1cc1n(c2=S)Cc2c-1nc1cc(F)c(C)cc1c2CNC(=O)[C@H]1C[C@@H](O)C1
0.108 nM
CC[C@@]1(O)C(=O)OCc2c1cc1n(c2=S)Cc2c-1nc1cc3c(cc1c2CNC(=S)CO)OCCO3
0.047 nM
CC[C@@]1(O)C(=O)OCc2c1cc1n(c2=S)Cc2c-1nc1cc(Cl)c(C)cc1c2CN
0.25 nM
CC[C@@]1(O)C(=O)OCc2c1cc1n(c2=S)Cc2c-1nc1cc(F)c(C)cc1c2CNC(=S)CO
< 0.003 nM
CC[C@@]1(O)C(=O)OCc2c1cc1n(c2=S)Cc2c-1nc1cc(F)c(C)cc1c2CN
0.141 nM
CC[C@@]1(O)C(=O)OCc2c1cc1n(c2=S)Cc2c-1nc1cc3c(cc1c2CNC(=O)OCCO)OCCO3
0.054 nM

Now turn to the next molecule.
Item CC[C@@]1(O)C(=O)OCc2c1cc1n(c2=S)Cc2c-1nc1cc(F)c(OC)cc1c2CNC(=O)OCCO was tested on T47D; the reported IC50 is 0.392 nM
